Source: ChEMBL document CHEMBL3875216

# System: Escherichia coli
# test details: Growth inhibition of Escherichia coli MT102 at 500 uM after 24 hrs relative to control
# test conditions: MT102, 24 h, read-out: GI
Some compounds, each annotated with its measured inhibition at 500 µM.

# given smiles, inhibition at 500 µM (%)
records = [
    ("CCCC(=O)N[C@H]1[C@H](OC(C)=O)O[C@H](COC(C)=O)[C@@H](OC(C)=O)[C@@H]1OC(C)=O", 3),
    ("O=C(Cc1ccc(C(F)(F)F)cc1)N[C@@H]1[C@@H](O)[C@H](O)[C@@H](CO)O[C@H]1O", 1.2),
    ("CC(=O)OC[C@H]1O[C@@H](OC(C)=O)[C@H](NC(=O)Cc2ccc(Br)cc2)[C@@H](OC(C)=O)[C@@H]1OC(C)=O", 0),
    ("CCCCCCCCCCCC(=O)N[C@@H]1[C@@H](O)[C@H](O)[C@@H](CO)O[C@H]1O", 14.3),
]

###

Some molecules, each annotated with its measured inhibition.
# Test system: Pseudomonas aeruginosa
# test details: Inhibition of LasR-dependent quorum sensing activity in Pseudomonas aeruginosa MH602 harboring GFP-fused […] LasB promoter assessed as inhibition of 3-oxo-dodecanoyl HSL-induced GFP expression at 1 mM measured after 8 hrs by fluorescence assay relative to control

# molecule, test target, inhibition
rows = [
    ("CCCCCCCCCC(=O)N[C@@H]1[C@@H](O)[C@H](O)[C@@H](CO)O[C@H]1O", "Pseudomonas aeruginosa", "15.6%"),
    ("O=C(Cc1ccc(F)cc1)N[C@@H]1[C@@H](O)[C@H](O)[C@@H](CO)O[C@H]1O", "Pseudomonas aeruginosa", "29%"),
    ("CCCC(=O)N[C@@H]1[C@@H](O)[C@H](O)[C@@H](CO)O[C@H]1O", "Pseudomonas aeruginosa", "22.5%"),
    ("CCCCCC(=O)N[C@H]1[C@H](OC(C)=O)O[C@H](COC(C)=O)[C@@H](OC(C)=O)[C@@H]1OC(C)=O", "Pseudomonas aeruginosa", "10.5%"),
    ("CC(=O)N[C@@H]1[C@@H](O)[C@H](O)[C@@H](CO)O[C@H]1O [N-ACETYLGLUCOSAMINE]", "Pseudomonas aeruginosa", "29.6%"),
    ("COc1ccc(CC(=O)N[C@@H]2[C@@H](O)[C@H](O)[C@@H](CO)O[C@H]2O)cc1", "Pseudomonas aeruginosa", "7.5%"),
    ("CC(=O)OC[C@H]1O[C@@H](OC(C)=O)[C@H](NC(=O)Cc2ccc(C(F)(F)F)cc2)[C@@H](OC(C)=O)[C@@H]1OC(C)=O", "Pseudomonas aeruginosa", "9.2%"),
    ("O=C(Cc1ccc(C(F)(F)F)cc1)N[C@@H]1[C@@H](O)[C@H](O)[C@@H](CO)O[C@H]1O", "Pseudomonas aeruginosa", "7.1%"),
    ("O=C(Cc1ccc(Cl)cc1)N[C@@H]1[C@@H](O)[C@H](O)[C@@H](CO)O[C@H]1O", "Pseudomonas aeruginosa", "3.4%"),
]

###

# System: Pseudomonas aeruginosa
# test details: Inhibition of LasR-dependent quorum sensing activity in Pseudomonas aeruginosa MH602 harboring GFP-fused […] LasB promoter assessed as inhibition of 3-oxo-dodecanoyl HSL-induced GFP expression at 1 mM measured after 8 hrs by fluorescence assay relative to control
quantity: inhibition (%)

# given smiles, test target, quantity, result number
records = [
    ("CCCCCC(=O)N[C@@H]1[C@@H](O)[C@H](O)[C@@H](CO)O[C@H]1O", "Pseudomonas aeruginosa", "inhibition", 13.1),
    ("CC(=O)OC[C@H]1O[C@@H](OC(C)=O)[C@H](NC(=O)Cc2ccc(Br)cc2)[C@@H](OC(C)=O)[C@@H]1OC(C)=O", "Pseudomonas aeruginosa", "inhibition", 6.8),
    ("CC(=O)OC[C@H]1O[C@@H](OC(C)=O)[C@H](NC(=O)CCCc2ccccc2)[C@@H](OC(C)=O)[C@@H]1OC(C)=O", "Pseudomonas aeruginosa", "inhibition", 4.9),
    ("CCCC(=O)N[C@H]1[C@H](OC(C)=O)O[C@H](COC(C)=O)[C@@H](OC(C)=O)[C@@H]1OC(C)=O", "Pseudomonas aeruginosa", "inhibition", 11),
    ("CC(=O)OC[C@H]1O[C@@H](OC(C)=O)[C@H](NC(=O)Cc2c[nH]c3ccccc23)[C@@H](OC(C)=O)[C@@H]1OC(C)=O", "Pseudomonas aeruginosa", "inhibition", 4),
    ("CCCCCCCCCC(=O)N[C@H]1[C@H](OC(C)=O)O[C@H](COC(C)=O)[C@@H](OC(C)=O)[C@@H]1OC(C)=O", "Pseudomonas aeruginosa", "inhibition", 7),
    ("CCCC(=O)CC(=O)N[C@H]1[C@H](OC(C)=O)O[C@H](COC(C)=O)[C@@H](OC(C)=O)[C@@H]1OC(C)=O", "Pseudomonas aeruginosa", "inhibition", 59.6),
    ("COc1ccc(CC(=O)N[C@H]2[C@H](OC(C)=O)O[C@H](COC(C)=O)[C@@H](OC(C)=O)[C@@H]2OC(C)=O)cc1", "Pseudomonas aeruginosa", "inhibition", 9.6),
    ("CC(=O)OC[C@H]1O[C@@H](OC(C)=O)[C@H](NC(=O)CCc2c[nH]c3ccccc23)[C@@H](OC(C)=O)[C@@H]1OC(C)=O", "Pseudomonas aeruginosa", "inhibition", 32.6),
    ("CCCCCC(=O)CC(=O)N[C@H]1[C@H](OC(C)=O)O[C@H](COC(C)=O)[C@@H](OC(C)=O)[C@@H]1OC(C)=O", "Pseudomonas aeruginosa", "inhibition", 8.9),
    ("CCCCCCCC(=O)N[C@H]1[C@H](OC(C)=O)O[C@H](COC(C)=O)[C@@H](OC(C)=O)[C@@H]1OC(C)=O", "Pseudomonas aeruginosa", "inhibition", 8.5),
    ("O=C(Cc1ccc(Br)cc1)N[C@@H]1[C@@H](O)[C@H](O)[C@@H](CO)O[C@H]1O", "Pseudomonas aeruginosa", "inhibition", 14.3),
    ("CCCCCCCC(=O)N[C@@H]1[C@@H](O)[C@H](O)[C@@H](CO)O[C@H]1O", "Pseudomonas aeruginosa", "inhibition", 12.2),
    ("CC(=O)OC[C@H]1O[C@@H](OC(C)=O)[C@H](NC(=O)Cc2ccc(F)cc2)[C@@H](OC(C)=O)[C@@H]1OC(C)=O", "Pseudomonas aeruginosa", "inhibition", 7.3),
    ("O=C(CCCc1ccccc1)N[C@@H]1[C@@H](O)[C@H](O)[C@@H](CO)O[C@H]1O", "Pseudomonas aeruginosa", "inhibition", 9.9),
]

###

# System: Escherichia coli
# test details: Inhibition of LuxR-dependent quorum sensing activity in Escherichia coli MT102 harboring pJBA132 assessed as inhibition of OHHL-induced GFP expression at 500 uM measured after 24 hrs by fluorescence assay relative to control
Some compounds, each annotated with its measured inhibition.
quantity: inhibition (%)

# given smiles, quantity, result number
records = [
    ("CC(=O)OC[C@H]1O[C@@H](OC(C)=O)[C@H](NC(=O)Cc2ccc(Cl)cc2)[C@@H](OC(C)=O)[C@@H]1OC(C)=O", "inhibition", 1.3),
    ("CCCC(=O)N[C@H]1[C@H](OC(C)=O)O[C@H](COC(C)=O)[C@@H](OC(C)=O)[C@@H]1OC(C)=O", "inhibition", 2.1),
    ("CCCC(=O)N[C@@H]1[C@@H](O)[C@H](O)[C@@H](CO)O[C@H]1O", "inhibition", 46.5),
]

###

# Tested on: Escherichia coli
# test details: Inhibition of LuxR-dependent quorum sensing activity in Escherichia coli MT102 harboring pJBA132 assessed as inhibition of OHHL-induced GFP expression at 2 mM measured after 8 hrs by fluorescence assay relative to control

# given smiles, inhibition / %
measured = [
    ("COc1ccc(CC(=O)N[C@@H]2[C@@H](O)[C@H](O)[C@@H](CO)O[C@H]2O)cc1", 3.5),
    ("CCCC(=O)N[C@@H]1[C@@H](O)[C@H](O)[C@@H](CO)O[C@H]1O", 98.4),
    ("CCCCCCCCCC(=O)N[C@H]1[C@H](OC(C)=O)O[C@H](COC(C)=O)[C@@H](OC(C)=O)[C@@H]1OC(C)=O", 48.1),
]

###

# Tested on: Pseudomonas aeruginosa
# test details: Inhibition of LasR-dependent quorum sensing activity in Pseudomonas aeruginosa MH602 harboring GFP-fused […] LasB promoter assessed as inhibition of 3-oxo-dodecanoyl HSL-induced GFP expression at 2 mM measured after 24 hrs by fluorescence assay relative to control
quantity: inhibition

# given smiles, test target, result
records = [
    ("CCCCCCCC(=O)N[C@H]1[C@H](OC(C)=O)O[C@H](COC(C)=O)[C@@H](OC(C)=O)[C@@H]1OC(C)=O", "Pseudomonas aeruginosa", "26.1%"),
    ("COc1ccc(CC(=O)N[C@H]2[C@H](OC(C)=O)O[C@H](COC(C)=O)[C@@H](OC(C)=O)[C@@H]2OC(C)=O)cc1", "Pseudomonas aeruginosa", "18.6%"),
    ("O=C(Cc1ccc(C(F)(F)F)cc1)N[C@@H]1[C@@H](O)[C@H](O)[C@@H](CO)O[C@H]1O", "Pseudomonas aeruginosa", "10.6%"),
    ("CCCC(=O)N[C@@H]1[C@@H](O)[C@H](O)[C@@H](CO)O[C@H]1O", "Pseudomonas aeruginosa", "13.4%"),
    ("CCCCCCCCCCCC(=O)N[C@H]1[C@H](OC(C)=O)O[C@H](COC(C)=O)[C@@H](OC(C)=O)[C@@H]1OC(C)=O", "Pseudomonas aeruginosa", "35.3%"),
    ("CC(=O)OC[C@H]1O[C@@H](OC(C)=O)[C@H](NC(=O)Cc2ccc(F)cc2)[C@@H](OC(C)=O)[C@@H]1OC(C)=O", "Pseudomonas aeruginosa", "5.7%"),
    ("O=C(Cc1ccc(F)cc1)N[C@@H]1[C@@H](O)[C@H](O)[C@@H](CO)O[C@H]1O", "Pseudomonas aeruginosa", "2.9%"),
    ("O=C(CCCc1ccccc1)N[C@@H]1[C@@H](O)[C@H](O)[C@@H](CO)O[C@H]1O", "Pseudomonas aeruginosa", "17.4%"),
    ("O=C(Cc1ccc(Cl)cc1)N[C@@H]1[C@@H](O)[C@H](O)[C@@H](CO)O[C@H]1O", "Pseudomonas aeruginosa", "8.7%"),
    ("CCCCCCCC(=O)N[C@@H]1[C@@H](O)[C@H](O)[C@@H](CO)O[C@H]1O", "Pseudomonas aeruginosa", "21.3%"),
    ("CC(=O)OC[C@H]1O[C@@H](OC(C)=O)[C@H](NC(=O)Cc2ccc(Br)cc2)[C@@H](OC(C)=O)[C@@H]1OC(C)=O", "Pseudomonas aeruginosa", "13.1%"),
    ("CCCC(=O)N[C@H]1[C@H](OC(C)=O)O[C@H](COC(C)=O)[C@@H](OC(C)=O)[C@@H]1OC(C)=O", "Pseudomonas aeruginosa", "22.2%"),
    ("CCCCCCCCCC(=O)N[C@H]1[C@H](OC(C)=O)O[C@H](COC(C)=O)[C@@H](OC(C)=O)[C@@H]1OC(C)=O", "Pseudomonas aeruginosa", "17.2%"),
    ("CCCCCC(=O)CC(=O)N[C@H]1[C@H](OC(C)=O)O[C@H](COC(C)=O)[C@@H](OC(C)=O)[C@@H]1OC(C)=O", "Pseudomonas aeruginosa", "2.5%"),
    ("CC(=O)OC[C@H]1O[C@@H](OC(C)=O)[C@H](NC(=O)Cc2c[nH]c3ccccc23)[C@@H](OC(C)=O)[C@@H]1OC(C)=O", "Pseudomonas aeruginosa", "12.5%"),
    ("CC(=O)OC[C@H]1O[C@@H](OC(C)=O)[C@H](NC(=O)Cc2ccc(C(F)(F)F)cc2)[C@@H](OC(C)=O)[C@@H]1OC(C)=O", "Pseudomonas aeruginosa", "7%"),
]
